Target: rat GLP-1 receptor (rGLP-1r) (Rattus norvegicus, UniProt P32301)
Construct: expressed in transfected cells; host or cells: HEK293s or CHO cells
Sequence (P32301 22-463): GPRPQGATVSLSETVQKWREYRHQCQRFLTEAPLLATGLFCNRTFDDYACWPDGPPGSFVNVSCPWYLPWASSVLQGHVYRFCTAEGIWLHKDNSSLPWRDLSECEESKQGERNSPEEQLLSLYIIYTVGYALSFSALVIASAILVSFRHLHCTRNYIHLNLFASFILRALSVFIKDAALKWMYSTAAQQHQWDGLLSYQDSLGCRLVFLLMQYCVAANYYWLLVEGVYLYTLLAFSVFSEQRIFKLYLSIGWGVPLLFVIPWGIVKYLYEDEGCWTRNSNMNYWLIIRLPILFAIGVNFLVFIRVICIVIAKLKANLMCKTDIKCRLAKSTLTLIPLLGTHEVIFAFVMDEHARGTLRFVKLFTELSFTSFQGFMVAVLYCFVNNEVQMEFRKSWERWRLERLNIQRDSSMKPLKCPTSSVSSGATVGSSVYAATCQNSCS
Assay: BSA-cAMP assay, cells expressing rat GLP-1 receptor
Type: cell-based
Settings: Batch 1; BSA-cAMP assay; read-out: rGLP1r cAMP activity EC50
pEC50: −log10 of the molar value.
propertyMeasured: pEC50

- IP396 (YSEGTFTSDYSKLLERQAIDEFIAWLLKGGGGGGGSGGGGSGGGGSGGGGSACPPC): 10.24
- IP359: Fc fusion, IgG1-TM, SEQ ID NO:366; agonist peptide YSEGTFTSDYSKLLEEEAVRLFIEHLLAGG (YSEGTFTSDYSKLLEEEAVRLFIEHLLAGGGGGGSGGGGSGGGGSGGGGSATHTCPPC): 10.40
- IP413: Fc fusion, IgG1-TM, SEQ ID NO:388; agonist peptide YSEGTFTSDYSKLLEEEASRLFIEWLLAGG (YSEGTFTSDYSKLLEEEASRLFIEWLLAGGGGGGSGGGGSGGGGSGGGGSATHTCPPC): 10.32

a. IP380: Fc fusion, IgG1-fusion, SEQ ID NO:376; agonist peptide YSEGTFTSDYSKLLEEEAVRLFIEFLLAGG (YSEGTFTSDYSKLLEEEAVRLFIEFLLAGGGGGGSGGGGSGGGGSGGGGSATHTCPPC)
b. IP342 (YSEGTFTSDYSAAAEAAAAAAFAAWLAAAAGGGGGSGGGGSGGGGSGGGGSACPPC)
Which numeric pEC50 is bigger, that of a or that of b ? State the label of the item chosen.
a
(a: 10.51, b: 7.64)

----------
Molecular target: rat GLP-1 receptor (rGLP-1r) (Rattus norvegicus, UniProt P32301)
Construct: expressed in transfected cells; host or cells: HEK293s or CHO cells
Sequence (P32301 22-463): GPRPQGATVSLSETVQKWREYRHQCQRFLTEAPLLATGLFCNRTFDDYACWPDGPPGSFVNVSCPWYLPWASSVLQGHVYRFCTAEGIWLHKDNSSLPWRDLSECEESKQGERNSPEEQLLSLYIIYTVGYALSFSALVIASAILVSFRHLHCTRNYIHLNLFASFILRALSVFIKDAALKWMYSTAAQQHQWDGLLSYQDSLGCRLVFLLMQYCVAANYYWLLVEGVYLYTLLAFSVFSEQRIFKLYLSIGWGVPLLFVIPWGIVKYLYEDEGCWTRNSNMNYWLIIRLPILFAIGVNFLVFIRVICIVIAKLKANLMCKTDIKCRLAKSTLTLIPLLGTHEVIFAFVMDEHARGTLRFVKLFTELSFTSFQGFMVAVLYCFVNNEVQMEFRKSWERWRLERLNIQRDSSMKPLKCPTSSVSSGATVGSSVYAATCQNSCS
Experiment: BSA-cAMP assay, cells expressing rat GLP-1 receptor
Type: cell-based
Conditions: Batch 2; BSA-cAMP assay; read-out: rGLP1r cAMP activity EC50
propertyMeasured: pEC50
pEC50 field: float, defined as -log10 of concentration (mol/L).

Please list pEC50 recorded for the substance IP396 (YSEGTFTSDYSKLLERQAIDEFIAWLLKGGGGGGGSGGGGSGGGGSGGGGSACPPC)
11.00
